Quick reference for Ki among some compounds
# target_system: Protein kinase C delta type (Mus musculus, UniProt P28867, Q257V)
# Sequence (P28867 whole entry Q257V, the tested form may be a part): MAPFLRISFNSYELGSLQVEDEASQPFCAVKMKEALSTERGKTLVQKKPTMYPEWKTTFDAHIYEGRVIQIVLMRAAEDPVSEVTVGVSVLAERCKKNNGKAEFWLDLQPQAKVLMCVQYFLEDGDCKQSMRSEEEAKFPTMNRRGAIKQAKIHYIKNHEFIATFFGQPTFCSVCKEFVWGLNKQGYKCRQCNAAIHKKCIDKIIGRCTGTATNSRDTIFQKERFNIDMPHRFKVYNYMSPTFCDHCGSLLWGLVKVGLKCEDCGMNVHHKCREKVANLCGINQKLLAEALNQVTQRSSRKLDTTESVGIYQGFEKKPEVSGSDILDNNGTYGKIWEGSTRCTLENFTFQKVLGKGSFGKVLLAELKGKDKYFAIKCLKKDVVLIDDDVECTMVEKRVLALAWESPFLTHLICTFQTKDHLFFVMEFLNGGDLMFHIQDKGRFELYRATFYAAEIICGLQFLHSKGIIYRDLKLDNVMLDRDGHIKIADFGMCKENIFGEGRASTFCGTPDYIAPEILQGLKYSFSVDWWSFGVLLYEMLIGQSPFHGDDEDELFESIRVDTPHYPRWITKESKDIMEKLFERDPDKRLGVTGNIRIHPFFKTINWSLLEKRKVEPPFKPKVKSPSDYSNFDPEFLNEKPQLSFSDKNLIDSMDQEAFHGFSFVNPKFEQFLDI
# protocol_description: Displacement of [3H]PDBu from protein kinase C delta C1b domain mutant (Q27V)
Answers without a unit are incomplete; give the number and then its unit.

The following compounds have reported results that may help.
{"compound": "C=C(C)[C@@]12OC3(c4ccccc4)O[C@@H]1[C@@H]1C4O[C@]4(CO)[C@@H](O)[C@]4(O)C(=O)C(C)=C[C@H]4[C@@]1(O3)[C@H](C)[C@H]2OC(=O)/C=C/c1ccccc1 (some centres undefined) [THYMELEATOXIN]", "assay_metric": "Ki", "reported_measurement": "47.1 nM"}
{"compound": "CCCC(=O)O[C@@H]1[C@@H](C)[C@@]2(O)[C@@H](C=C(CO)C[C@]3(O)C(=O)C(C)=C[C@@H]23)[C@@H]2C(C)(C)[C@]12OC(=O)CCC", "assay_metric": "Ki", "reported_measurement": "14.2 nM"}

Query: Reported Ki, compound `CC1=CC23C(=O)[C@@H](C=C(CO)[C@@H](O)[C@]2(O)[C@H]1OC(=O)c1ccccc1)[C@H]1[C@@H](C[C@H]3C)C1(C)C` : ____
Result: 1.41 nM

Query: Reported Ki, compound CC(C)[C@H]1C(=O)N[C@H](CO)Cc2c[nH]c3cccc(c23)N1C [INDOLACTUM] : ____
Result: 1100 nM

====

Quick reference for pKi among some compounds
# target_system: Protein kinase C delta type (Mus musculus, UniProt P28867, L250G)
# Sequence (P28867 whole entry L250G, the tested form may be a part): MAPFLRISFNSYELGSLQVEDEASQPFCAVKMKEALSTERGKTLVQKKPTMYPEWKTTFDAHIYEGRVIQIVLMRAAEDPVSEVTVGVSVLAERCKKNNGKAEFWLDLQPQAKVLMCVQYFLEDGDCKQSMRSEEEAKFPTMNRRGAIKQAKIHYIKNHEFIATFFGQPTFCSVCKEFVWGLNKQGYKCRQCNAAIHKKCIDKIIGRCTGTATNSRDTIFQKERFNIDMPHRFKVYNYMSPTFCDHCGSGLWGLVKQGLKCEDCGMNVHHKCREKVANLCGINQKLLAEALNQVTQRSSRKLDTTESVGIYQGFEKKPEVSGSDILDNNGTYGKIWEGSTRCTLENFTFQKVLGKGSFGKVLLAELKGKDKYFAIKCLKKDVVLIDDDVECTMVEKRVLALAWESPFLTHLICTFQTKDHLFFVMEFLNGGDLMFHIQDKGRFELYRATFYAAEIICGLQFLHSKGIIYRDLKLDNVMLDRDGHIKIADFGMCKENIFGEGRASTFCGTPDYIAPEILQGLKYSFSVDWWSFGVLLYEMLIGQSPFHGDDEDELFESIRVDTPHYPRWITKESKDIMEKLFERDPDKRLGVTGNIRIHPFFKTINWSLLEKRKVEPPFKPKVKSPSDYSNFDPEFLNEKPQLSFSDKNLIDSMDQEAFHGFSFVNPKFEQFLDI
# protocol_description: Displacement of [3H]PDBu from protein kinase C delta C1b domain mutant (L20G)
# pKi: negative log10 of molar concentration; output just the value

The following compounds have reported results that may help.
{"compound": "CC(C)[C@H]1C(=O)N[C@H](CO)Cc2c[nH]c3cccc(c23)N1C", "reported_measurement": 7.18}
{"compound": "C=C(C)[C@@]12OC3(c4ccccc4)O[C@@H]1[C@@H]1C4O[C@]4(CO)[C@@H](O)[C@]4(O)C(=O)C(C)=C[C@H]4[C@@]1(O3)[C@H](C)[C@H]2OC(=O)/C=C/c1ccccc1 (some centres undefined)", "reported_measurement": 7.95}
{"compound": "CCCC(=O)O[C@@H]1[C@@H](C)[C@@]2(O)[C@@H](C=C(CO)C[C@]3(O)C(=O)C(C)=C[C@@H]23)[C@@H]2C(C)(C)[C@]12OC(=O)CCC", "reported_measurement": 8.18}

Shift focus to the following entry.
Query: Reported pKi, compound `CC1=CC23C(=O)[C@@H](C=C(CO)[C@@H](O)[C@]2(O)[C@H]1OC(=O)c1ccccc1)[C@H]1[C@@H](C[C@H]3C)C1(C)C` : ____
Result: 8.97

====

# target_system: Protein kinase C delta type (Mus musculus)
# protocol_description: Displacement of [3H]PDBu from protein kinase C delta C1b domain (Wild type)
assay_metric: pKi
# pKi: negative log10 of molar concentration; output just the value

The following compounds have reported results that may help.
{"compound": "C=C(C)[C@@]12OC3(c4ccccc4)O[C@@H]1[C@@H]1C4O[C@]4(CO)[C@@H](O)[C@]4(O)C(=O)C(C)=C[C@H]4[C@@]1(O3)[C@H](C)[C@H]2OC(=O)/C=C/c1ccccc1 (stereo partly drawn) [THYMELEATOXIN]", "reported_measurement": 8.57}
{"compound": "CCCC(=O)O[C@@H]1[C@@H](C)[C@@]2(O)[C@@H](C=C(CO)C[C@]3(O)C(=O)C(C)=C[C@@H]23)[C@@H]2C(C)(C)[C@]12OC(=O)CCC", "reported_measurement": 9.45}

Shift focus to the following entry.
Query: API: value(readout=pKi, system=Protein kinase C delta type (Mus musculus)) for record `CC1=CC23C(=O)[C@@H](C=C(CO)[C@@H](O)[C@]2(O)[C@H]1OC(=O)c1ccccc1)[C@H]1[C@@H](C[C@H]3C)C1(C)C`
Result: 9.89

====

# target_system: Protein kinase C delta type (Mus musculus, UniProt P28867, P241G)
# Sequence (P28867 whole entry P241G, the tested form may be a part): as the sequence (P28867 whole entry L250G, the tested form may be a part) above, with P241G, G250L counted along it
# protocol_description: Displacement of [3H]-PDBu from protein kinase C delta C1b domain mutant (P11G)
assay_metric: pKi
# pKi: negative log10 of molar concentration; output just the value

The following compounds have reported results that may help.
{"compound": "C=C(C)[C@@]12OC3(c4ccccc4)O[C@@H]1[C@@H]1C4O[C@]4(CO)[C@@H](O)[C@]4(O)C(=O)C(C)=C[C@H]4[C@@]1(O3)[C@H](C)[C@H]2OC(=O)/C=C/c1ccccc1 (some centres undefined) [THYMELEATOXIN]", "pKi": 6.38}
{"compound": "CCCC(=O)O[C@@H]1[C@@H](C)[C@@]2(O)[C@@H](C=C(CO)C[C@]3(O)C(=O)C(C)=C[C@@H]23)[C@@H]2C(C)(C)[C@]12OC(=O)CCC", "pKi": 6.68}

Query: API: value(readout=pKi, system=Protein kinase C delta type (Mus musculus, UniProt P28867, P241G)) for record CC(C)[C@H]1C(=O)N[C@H](CO)Cc2c[nH]c3cccc(c23)N1C [INDOLACTUM]
Result: 5.15

Query: API: value(readout=pKi, system=Protein kinase C delta type (Mus musculus, UniProt P28867, P241G)) for record `CC1=CC23C(=O)[C@@H](C=C(CO)[C@@H](O)[C@]2(O)[C@H]1OC(=O)c1ccccc1)[C@H]1[C@@H](C[C@H]3C)C1(C)C`
Result: 7.97

====

# target_system: Protein kinase C delta type (Mus musculus, UniProt P28867, F243G)
# protocol_description: Displacement of [3H]PDBu from protein kinase C delta C1b domain mutant (F13G)
Quick reference for Ki among some compounds
Just the number please, in nM, no unit attached.

{"compound": "CCCC(=O)O[C@@H]1[C@@H](C)[C@@]2(O)[C@@H](C=C(CO)C[C@]3(O)C(=O)C(C)=C[C@@H]23)[C@@H]2C(C)(C)[C@]12OC(=O)CCC", "value_unit": "nM", "Ki": 0.82}
{"compound": "C=C(C)[C@@]12OC3(c4ccccc4)O[C@@H]1[C@@H]1C4O[C@]4(CO)[C@@H](O)[C@]4(O)C(=O)C(C)=C[C@H]4[C@@]1(O3)[C@H](C)[C@H]2OC(=O)/C=C/c1ccccc1 (some centres undefined)", "value_unit": "nM", "Ki": 7.8}

Query: Reported Ki, compound `CC1=CC23C(=O)[C@@H](C=C(CO)[C@@H](O)[C@]2(O)[C@H]1OC(=O)c1ccccc1)[C@H]1[C@@H](C[C@H]3C)C1(C)C` : ____
Result: 0.15

Query: Reported Ki, compound `CC(C)[C@H]1C(=O)N[C@H](CO)Cc2c[nH]c3cccc(c23)N1C` : ____
Result: 10.9

====

Quick reference for pKi among some compounds
# target_system: Protein kinase C delta type (Mus musculus, UniProt P28867, T8G)
# Sequence (P28867 whole entry, looked up, stated change not applied, the tested form may be a part): as the sequence (P28867 whole entry Q257V, the tested form may be a part) above, with V257Q counted along it
# protocol_description: Displacement of [3H]PDBu from protein kinase C delta C1b domain mutant (T8G)
# pKi: negative log10 of molar concentration; output just the value

{"compound": "C=C(C)[C@@]12OC3(c4ccccc4)O[C@@H]1[C@@H]1C4O[C@]4(CO)[C@@H](O)[C@]4(O)C(=O)C(C)=C[C@H]4[C@@]1(O3)[C@H](C)[C@H]2OC(=O)/C=C/c1ccccc1 (some centres undefined) [THYMELEATOXIN]", "pKi": 7.06}
{"compound": "CC(C)[C@H]1C(=O)N[C@H](CO)Cc2c[nH]c3cccc(c23)N1C [INDOLACTUM]", "pKi": 6.18}
{"compound": "CC1=CC23C(=O)[C@@H](C=C(CO)[C@@H](O)[C@]2(O)[C@H]1OC(=O)c1ccccc1)[C@H]1[C@@H](C[C@H]3C)C1(C)C", "pKi": 8.50}

Shift focus to the following entry.
Query: Reported pKi, compound `CCCC(=O)O[C@@H]1[C@@H](C)[C@@]2(O)[C@@H](C=C(CO)C[C@]3(O)C(=O)C(C)=C[C@@H]23)[C@@H]2C(C)(C)[C@]12OC(=O)CCC` : ____
Result: 7.74

====

# target_system: Protein kinase C delta type (Mus musculus, UniProt P28867, W252G)
# Sequence (P28867 whole entry W252G, the tested form may be a part): as the sequence (P28867 whole entry L250G, the tested form may be a part) above, with G250L, W252G counted along it
# protocol_description: Displacement of [3H]PDBu from protein kinase C delta C1b domain mutant (W22G)
assay_metric: pKi
# pKi: negative log10 of molar concentration; output just the value

Query: Reported pKi, molecule `CCCC(=O)O[C@@H]1[C@@H](C)[C@@]2(O)[C@@H](C=C(CO)C[C@]3(O)C(=O)C(C)=C[C@@H]23)[C@@H]2C(C)(C)[C@]12OC(=O)CCC` : ____
Result: 7.60

====

# target_system: Protein kinase C delta type (Mus musculus, UniProt P28867, T242G)
# Sequence (P28867 whole entry T242G, the tested form may be a part): as the sequence (P28867 whole entry Q257V, the tested form may be a part) above, with T242G, V257Q counted along it
# protocol_description: Displacement of [3H]PDBu from protein kinase C delta C1b domain mutant (T12G)
assay_metric: pKi
# pKi: negative log10 of molar concentration; output just the value

The following molecules have reported results that may help.
{"molecule": "CC1=CC23C(=O)[C@@H](C=C(CO)[C@@H](O)[C@]2(O)[C@H]1OC(=O)c1ccccc1)[C@H]1[C@@H](C[C@H]3C)C1(C)C", "target_system": "Protein kinase C delta type (Mus musculus, UniProt P28867, T242G)", "assay_metric": "pKi", "reported_measurement": 9.14}
{"molecule": "CCCC(=O)O[C@@H]1[C@@H](C)[C@@]2(O)[C@@H](C=C(CO)C[C@]3(O)C(=O)C(C)=C[C@@H]23)[C@@H]2C(C)(C)[C@]12OC(=O)CCC", "target_system": "Protein kinase C delta type (Mus musculus, UniProt P28867, T242G)", "assay_metric": "pKi", "reported_measurement": 8.91}
{"molecule": "CC(C)[C@H]1C(=O)N[C@H](CO)Cc2c[nH]c3cccc(c23)N1C", "target_system": "Protein kinase C delta type (Mus musculus, UniProt P28867, T242G)", "assay_metric": "pKi", "reported_measurement": 7.60}

Query: API: value(readout=pKi, system=Protein kinase C delta type (Mus musculus, UniProt P28867, T242G)) for record C=C(C)[C@@]12OC3(c4ccccc4)O[C@@H]1[C@@H]1C4O[C@]4(CO)[C@@H](O)[C@]4(O)C(=O)C(C)=C[C@H]4[C@@]1(O3)[C@H](C)[C@H]2OC(=O)/C=C/c1ccccc1 (some centres undefined)
Result: 7.72
